System: 786-0
Test: NCI-60 screen (SRB), renal cancer
Conditions: Homo sapiens, 786-0
Measured IC50 values are reported for all entries that follow.
Kindly provide the numeric value in µM only, without the unit symbol.

input: Sample COc1cc(OC)c(S(N)(=O)=O)cc1C(=O)/C=C/c1ccc(Cl)cc1 [Compound 17b] — what was its IC50?
output: 1.9

input: Repeat for the following compound: COc1cc(OC)c(S(N)(=O)=O)cc1C(=O)/C=C/c1ccc(C)cc1 [Compound 17c]
output: 3.85

input: Repeat for the following compound: COc1cc(OC)c(S(=O)(=O)N(CCCl)CCCl)cc1C(=O)/C=C/c1cc(OC)c(OC)c(OC)c1 [Compound 18e]
output: 5.66

input: Repeat for the following compound: COc1cc(OC)c(S(N)(=O)=O)cc1C(=O)C=Cc1ccccc1 [Compound 17a]
output: 4.82

---

attributeMeasured: melting point

Sample answers from the record:
>>> experimentalvalue("COc1ccc(/C=C/C(=O)c2cc(S(=O)(=O)NNC(=O)c3ccncc3)c(OC)cc2OC)cc1 [Compound 20d]")
"214 to 217 °C"
>>> experimentalvalue("COc1ccc(C(=O)/C=C/c2ccc(C)cc2)cc1S(=O)(=O)NNC(=O)c1ccncc1")
"250 to 252 °C"
>>> experimentalvalue("COc1cc(OC)c(S(=O)(=O)NNC(=O)c2ccncc2)cc1C(=O)C=Cc1ccccc1 [Compound 20a]")
"143 to 145 °C"

input: Sample COc1ccc(C2=NN(C=O)C(c3ccc(Cl)cc3)C2)cc1S(N)(=O)=O (stereo not shown) [Compound 22a] — what was its melting point?
output: 230 to 231 °C

---

Tested on: UO-31
Assay: NCI-60 screen (SRB), renal cancer
Conditions: Homo sapiens, UO-31, read-out: LC50
attributeMeasured: CC50 (µM)
Kindly provide the numeric value in µM only, without the unit symbol.

>>> experimentalvalue("COc1cc(OC)c(S(N)(=O)=O)cc1C(=O)/C=C/c1ccc(Cl)cc1 [Compound 17b]")
33.1
>>> experimentalvalue("COc1cc(OC)c(S(=O)(=O)N(CCCl)CCCl)cc1C(=O)/C=C/c1cc(OC)c(OC)c(OC)c1 [Compound 18e]")
5.51
>>> experimentalvalue("COc1cc(OC)c(S(N)(=O)=O)cc1C(=O)C=Cc1ccccc1 [Compound 17a]")
43.5

The record that follows has no CC50 shown yet.
input: Sample COc1cc(OC)c(S(N)(=O)=O)cc1C(=O)/C=C/c1ccc(C)cc1 [Compound 17c] — what was its CC50?
output: 38.1

---

Measured CC50 values are reported for all entries that follow.
Tested on: EKVX
Assay: NCI-60 screen (SRB), non-small cell lung cancer
Conditions: Homo sapiens, read-out: LC50
Kindly provide the numeric value in µM only, without the unit symbol.

>>> experimentalvalue("COc1cc(OC)c(S(N)(=O)=O)cc1C(=O)C=Cc1ccccc1 [Compound 17a]")
53.6

The record that follows has no CC50 shown yet.
input: Sample COc1cc(OC)c(S(N)(=O)=O)cc1C(=O)/C=C/c1ccc(C)cc1 [Compound 17c] — what was its CC50?
output: 43.3

---

System: SW-620
Assay: NCI-60 screen (SRB), colon cancer
Details: Homo sapiens, SW-620
Measured IC50 values are reported for all entries that follow.
Kindly provide the numeric value in µM only, without the unit symbol.

Sample answers from the record:
>>> experimentalvalue("COc1cc(OC)c(S(=O)(=O)N(CCCl)CCCl)cc1C(=O)/C=C/c1cc(OC)c(OC)c(OC)c1 [Compound 18e]")
25.1
>>> experimentalvalue("COc1cc(OC)c(S(N)(=O)=O)cc1C(=O)/C=C/c1ccc(Cl)cc1 [Compound 17b]")
2.49
>>> experimentalvalue("COc1cc(OC)c(S(N)(=O)=O)cc1C(=O)/C=C/c1ccc(C)cc1 [Compound 17c]")
3.43

input: Please provide the recorded IC50 for COc1cc(OC)c(S(N)(=O)=O)cc1C(=O)C=Cc1ccccc1 [Compound 17a] , tested on SW-620.
output: 2.68
